target-or-test-system: CFTR (Homo sapiens, UniProt P13569)
Sequence (P13569 with tags, fused parts or gaps DEL508-508): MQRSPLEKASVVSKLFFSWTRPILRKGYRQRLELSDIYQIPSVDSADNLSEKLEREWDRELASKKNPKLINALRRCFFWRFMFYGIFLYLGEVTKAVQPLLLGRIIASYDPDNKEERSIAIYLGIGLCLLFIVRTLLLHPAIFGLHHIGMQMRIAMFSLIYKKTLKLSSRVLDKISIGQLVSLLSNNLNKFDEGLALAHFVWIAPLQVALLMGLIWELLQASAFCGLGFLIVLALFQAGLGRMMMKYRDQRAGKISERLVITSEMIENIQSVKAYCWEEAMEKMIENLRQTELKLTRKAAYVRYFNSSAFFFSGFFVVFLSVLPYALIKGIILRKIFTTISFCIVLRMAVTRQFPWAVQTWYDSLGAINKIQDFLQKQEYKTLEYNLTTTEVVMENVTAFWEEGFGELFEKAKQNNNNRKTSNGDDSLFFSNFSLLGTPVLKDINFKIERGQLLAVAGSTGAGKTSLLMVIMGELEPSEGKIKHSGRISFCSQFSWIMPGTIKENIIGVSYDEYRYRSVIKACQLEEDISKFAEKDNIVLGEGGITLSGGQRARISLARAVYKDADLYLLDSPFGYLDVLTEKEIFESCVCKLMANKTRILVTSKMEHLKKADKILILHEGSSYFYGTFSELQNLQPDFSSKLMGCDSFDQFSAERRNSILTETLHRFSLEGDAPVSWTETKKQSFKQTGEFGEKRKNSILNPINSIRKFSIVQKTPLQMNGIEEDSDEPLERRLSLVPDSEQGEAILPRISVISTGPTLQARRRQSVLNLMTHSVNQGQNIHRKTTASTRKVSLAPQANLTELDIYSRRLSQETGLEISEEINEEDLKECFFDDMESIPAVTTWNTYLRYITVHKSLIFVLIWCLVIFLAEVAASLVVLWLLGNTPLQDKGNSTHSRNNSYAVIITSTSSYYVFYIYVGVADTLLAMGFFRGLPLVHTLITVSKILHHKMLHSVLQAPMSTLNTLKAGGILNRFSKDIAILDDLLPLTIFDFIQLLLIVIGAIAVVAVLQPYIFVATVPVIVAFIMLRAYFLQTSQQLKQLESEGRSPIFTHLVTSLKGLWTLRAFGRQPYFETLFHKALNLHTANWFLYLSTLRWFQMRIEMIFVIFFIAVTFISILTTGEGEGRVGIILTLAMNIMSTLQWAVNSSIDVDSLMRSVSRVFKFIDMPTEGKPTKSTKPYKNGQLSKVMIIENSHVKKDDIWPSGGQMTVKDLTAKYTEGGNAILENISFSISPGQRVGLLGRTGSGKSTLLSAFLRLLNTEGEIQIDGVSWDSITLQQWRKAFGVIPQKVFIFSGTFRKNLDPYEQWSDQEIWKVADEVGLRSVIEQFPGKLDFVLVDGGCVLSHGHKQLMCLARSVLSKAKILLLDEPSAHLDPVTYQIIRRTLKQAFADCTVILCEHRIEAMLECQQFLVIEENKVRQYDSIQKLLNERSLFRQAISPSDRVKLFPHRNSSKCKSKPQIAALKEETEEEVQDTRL
method: Membrane potential dye, Enteroid Assay B
Type: cell-based
details: Table 8; chloride transport as % of triple combination control (Enteroid Assay B)
readout-kind: Ent. B Max Activity

compound="Cc1cccc(C)c1-c1cc2nc(n1)NS(=O)(=O)c1cccc(c1)C(=O)N(CCCC(C)(C)O)[C@H](CCC(C)(C)O)CO2 [Compound 660]" data_value="+ (+ is <30%)"
compound="Cc1cccc(C)c1-c1cc2nc(n1)NS(=O)(=O)c1cccc(n1)C(=O)N(Cc1cccnc1)[C@H](CC(C)(C)C)CO2 [Compound 1083]" data_value="+++ (+++ is >60%)"
compound="CNC(=O)c1ccc(CN2C(=O)c3cccc(c3)S(=O)(=O)Nc3nc(cc(-c4c(C)cccc4C)n3)OC[C@H]2CC(C)(C)C)nc1 [Compound 397]" data_value="+++ (+++ is >60%)"
compound="Cc1cccc(C)c1-c1cc2nc(n1)NS(=O)(=O)c1cccc(n1)C(=O)N(Cc1ccccc1)[C@H](CC(C)(C)C)CO2 [Compound 1085]" data_value="+++ (+++ is >60%)"
compound="Cc1cccc(C)c1-c1cc2nc(n1)NS(=O)(=O)c1cccc(c1)C(=O)N(Cc1ccc(C(C)(C)O)cc1)[C@H](CC(C)(C)O)CO2 [Compound 663]" data_value="+++ (+++ is >60%)"

Respond only with Ent. B Max Activity recorded for Cc1cccc(C)c1-c1cc2nc(n1)NS(=O)(=O)c1cc(nn1C)C(=O)N(Cc1cccnn1)[C@H](CC(C)(C)C)CO2 [Compound 931] + (+ is <30%)

Respond only with Ent. B Max Activity recorded for Cc1cccc(C)c1-c1cc2nc(n1)NS(=O)(=O)c1cccc(c1)C(=O)N(Cc1ccc(C(C)(C)O)cc1)[C@H](CC(C)(C)C)CO2 [Compound 1094] +++ (+++ is >60%)

Respond only with Ent. B Max Activity recorded for Cc1cccc(C)c1-c1cc2nc(n1)NS(=O)(=O)c1cccc(c1)C(=O)N(CCCOC(F)(F)F)[C@H](CC(C)C)CO2 [Compound 42] +++ (+++ is >60%)

Respond only with Ent. B Max Activity recorded for Cc1cccc(C)c1-c1cc2nc(n1)NS(=O)(=O)c1cccc(c1)C(=O)N(CC1CC(C)(O)C1)[C@H](CC(C)(C)C)CO2 (stereo partly shown) [Compound 665] +++ (+++ is >60%)

Respond only with Ent. B Max Activity recorded for Cc1cccc(C)c1-c1cc2nc(n1)NS(=O)(=O)c1cccc(c1)C(=O)N(Cc1cccnc1)[C@H](CC(C)(C)C)CO2 [Compound 1086] +++ (+++ is >60%)

Respond only with Ent. B Max Activity recorded for Cc1cccc(C)c1-c1cc2nc(n1)NS(=O)(=O)c1cccc(c1)C(=O)N(CCCCC(C)(C)O)[C@H](CC(C)(C)C)CO2 [Compound 107] +++ (+++ is >60%)

Respond only with Ent. B Max Activity recorded for Cc1cccc(C)c1-c1cc2nc(n1)NS(=O)(=O)c1cccc(c1)C(=O)N(Cc1ccnc(NC(=O)OC(C)C)c1)[C@H](CC(C)(C)C)CO2 [Compound 1088] +++ (+++ is >60%)
